Assay: chemical genetic growth profiling, strain panel (AID 1159580);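 note: tested at 20 µM; growth read once vehicle control cultures reached saturation at 30 °C; 1 = growth at the plate median or of vehicle wells; lower values mean less growth of the strain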
Details: S. cerevisiae deletion strains, growth OD, locus YDR297W, strain sur2, stronger effect = lower value
The whole screen tested about 5,500 compounds, of which about 2,000 (36%) were called active. Not shown: some 18% with an inconclusive outcome. This is one part of the list.

| molecule | normalized growth |
| --- | --- |
| C[C@]12C=CC(=O)C=C1CCC1C2[C@@H](O)C[C@@]2(C)C1CC[C@]2(O)C(=O)CO (stereo not given in full) | 0.99 |
| COc1ccc2nc(S(=O)Cc3ncc(C)c(OC)c3C)[nH]c2c1 (stereo not given) | 1.01 |
| CC(=O)Oc1c2c(c(CC=C(C)C)c3c1C(=O)C1=C[C@@H]4CC5C(C)(C)OC(C/C=C(\C)C(=O)O)(C4=O)[C@@]15O3)OC(C)(CCC=C(C)C)C=C2 (stereo not given in full) | 0.969 |
| COc1ccnc(CS(=O)c2nc3ccc(OC(F)F)cc3[nH]2)c1OC (stereo not given) | 1.02 |
| COC(=O)/C(C)=C\CC12OC(C)(C)C3CC(C=C4C(=O)c5c(OC)c6c(c(CC=C(C)C)c5OC431)OC(C)(CCC=C(C)C)C=C6)C2=O (stereo not given) | 1.04 |

====

normalized growth values, listed per item
Assay: chemical genetic growth profiling, strain panel (AID 1159580);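 note: tested at 20 µM; growth read once vehicle control cultures reached saturation at 30 °C; 1 = growth at the plate median or of vehicle wells; lower values mean less growth of the strain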
Conditions: S. cerevisiae deletion strains, growth OD, locus YML124C, strain tub3, stronger effect = lower value
Screen size: about 5,500 compounds; about 2,000 (36%) were called active. Inconclusive results (about 18%) are left out. This is one part of the list. Where a SMILES comes first, the peptide text is derived from it.

| compound | normalized growth |
| --- | --- |
| CC(=O)O[C@@H]1CC2C(C)(C)[C@@H](O)CC[C@]2(C)C2CC[C@@]3(C)[C@H](c4ccoc4)OC(=O)[C@H]4O[C@]43[C@@]21C (stereo partly drawn) | 1 |
| CC(=O)N[C@@H](CC(=O)O)C(=O)N[C@@H](CCC(=O)O)C(=O)O (Ac-Asp-Glu-OH) | 0.984 |
| COC[C@]12CN(C=O)C3[C@@H]4[C@H](OC)C1[C@]3(C1CC3(O)C(OC)C(O)C4(OC(C)=O)C1C3OC(=O)c1ccccc1)[C@@H](OC)C[C@H]2O (stereo partly drawn) | 1.01 |
| FC(F)(F)c1cccc(N2CCNCC2)c1 | 0.991 |
| NCCCCC(=O)O | 0.987 |
| NCCCC(=O)O | 1.03 |
| CC(=O)N[C@@H](CCC(=O)O)C(=O)O | 1.01 |
| Fc1ccc([C@@H]2CCNC[C@H]2COc2ccc3c(c2)OCO3)cc1 | 1 |
| NCCCCCC(=O)O | 1 |
| COC(=O)/C(C)=C\CC12OC(C)(C)C3CC(C=C4C(=O)c5c(OC)c6c(c(CC=C(C)C)c5OC431)OC(C)(CCC=C(C)C)C=C6)C2=O (stereo not drawn) | 0.994 |
| CC(=O)O[C@H]1CC[C@@]2(C)C(C[C@@H](OC(C)=O)[C@]3(C)C2CC[C@@]2(C)[C@H](c4ccoc4)OC(=O)[C@H]4O[C@]423)C1(C)C (stereo partly drawn) | 1.01 |
| C=NC(C(=O)NC1C(=O)N2C1SC(C)(C)C2C(=O)O)c1ccccc1 (stereo not drawn) | 1.01 |
| CC(C)=CC1C(C(=O)OCc2cccc(Oc3ccccc3)c2)C1(C)C (stereo not drawn) | 0.995 |
| CCCNC(=O)NS(=O)(=O)c1ccc(Cl)cc1 | 0.997 |
| CC(=O)O[C@H]1C[C@@H](OC(C)=O)C(C)(C)C2C[C@@H](O)[C@]3(C)C(CC[C@@]4(C)[C@H](c5ccoc5)OC(=O)[C@H]5O[C@]543)[C@]21C (stereo partly drawn) | 0.992 |
| COC1C=CC23c4cc5c(cc4CN(CC2O)[C@@H]3C1)OCO5 (stereo partly drawn) | 0.991 |
| CC1(C)C(=O)[C@@H]2O[C@@H]2[C@@]2(C)C1C[C@@H](O)[C@]1(C)C2CC[C@@]2(C)[C@H](c3ccoc3)OC(=O)C3OC321 (stereo partly drawn) | 0.996 |
| CCCCCCCCCCCC(=O)OCC(COP(=O)(O)OCC(O)COP(=O)(O)OCC(COC(=O)CCCCCCCCCCC)OC(=O)CCCCCCCCCCC)OC(=O)CCCCCCCCCCC (stereo not drawn) | 1.02 |

====

Test: chemical genetic growth profiling, strain panel (AID 1159580);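 note: tested at 20 µM; growth read once vehicle control cultures reached saturation at 30 °C; 1 = growth at the plate median or of vehicle wells; lower values mean less growth of the strain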
Conditions: S. cerevisiae deletion strains, growth OD, locus YBR023C, strain chs3
Screen size: about 5,500 compounds; about 2,000 (36%) were called active. Roughly 18% stayed inconclusive and do not appear here. Rule as the data show it: active = normalized growth mostly below about 0.91 (no sharp cut-off); inconclusive = no clear call, values can overlap the other calls; inactive = mostly above about 0.92. The list shows a part of the results.
Outcome codes: 1 (active), 0 (inactive)

| molecule | assigned.label |
| --- | --- |
| COC(=O)/C(C)=C\CC12OC(C)(C)C3CC(C=C4C(=O)c5c(OC)c6c(c(CC=C(C)C)c5OC431)OC(C)(CCC=C(C)C)C=C6)C2=O (stereo not given) | 0 |
| O=C(O)[C@@H](S)[C@@H](S)C(=O)O | 0 |
| CC(C)=CC1C(C(=O)OCc2cccc(Oc3ccccc3)c2)C1(C)C (stereo not given) | 0 |
| NCCCCCC(=O)O | 0 |
| O=C(O)CCC1NCC2CC1CN1CCCCC21 (stereo not given) | 0 |
| Clc1ccc(CSC(Cn2ccnc2)c2ccc(Cl)cc2Cl)cc1 (stereo not given) | 1 |
| CCCNC(=O)NS(=O)(=O)c1ccc(Cl)cc1 | 0 |
| COc1ccc2c(c1)OCC(Cc1ccc(OC)c(O)c1)C2=O (stereo not given) | 0 |
| COc1c(C)c2c(c(O)c1C/C=C(\C)CCC(=O)O)C(=O)OC2 | 1 |
| COc1cc(NS(C)(=O)=O)ccc1Cc1c2ccccc2nc2ccccc12 | 0 |
| O=C(O)COc1ccc(Cl)cc1Cl | 0 |
| Cc1cc(/C=C/c2ccc3cc(N(C)C)ccc3[n+]2C)c(C)n1-c1ccccc1 | 0 |
| CC(=O)O[C@H]1C[C@@]2(C)[C@@H](C[C@@H](O)C3[C@]2(C)CC[C@H]2[C@H](C)[C@H](O)CC[C@]32C)/C1=C(/CCC=C(C)C)C(=O)O (stereo not given in full) | 0 |
| Clc1ccc(COC(Cn2ccnc2)c2ccc(Cl)cc2Cl)c(Cl)c1 (stereo not given) | 1 |
| CC(=O)Oc1c2c(c3c(c1CC=C(C)C)O[C@]14C(=C[C@@H]5CC1C(C)(C)OC4(C/C=C(\C)C(=O)O)C5=O)C3=O)OC(C)(CCC=C(C)C)C=C2 (stereo not given in full) | 0 |
| COc1ccc(CCC(=O)c2c(O)cc(O[C@@H]3O[C@H](CO)C(O)[C@H](O)C3O[C@@H]3O[C@@H](C)[C@H](O)[C@@H](O)[C@H]3O)cc2O)cc1O (stereo not given in full) | 0 |
| NCCCCC(=O)O | 0 |
| O=C1CCCN1CC#CCN1CCCC1 | 0 |
| CC(=O)Oc1c2c(c(CC=C(C)C)c3c1C(=O)C1=C[C@@H]4CC5C(C)(C)OC(C/C=C(\C)C(=O)O)(C4=O)[C@@]15O3)OC(C)(CCC=C(C)C)C=C2 (stereo not given in full) | 0 |
| Clc1ccc(CO/N=C(/Cn2ccnc2)c2ccc(Cl)cc2Cl)c(Cl)c1 | 1 |

====

Assay: chemical genetic growth profiling, strain panel (AID 1159580);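 note: tested at 20 µM; growth read once vehicle control cultures reached saturation at 30 °C; 1 = growth at the plate median or of vehicle wells; lower values mean less growth of the strain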
Conditions: S. cerevisiae deletion strains, growth OD, locus YLL041C, strain sdh2, stronger effect = lower value
Screen size: about 5,500 compounds; about 2,000 (36%) were called active. About 18% were inconclusive and are not listed. This is one part of the list.
normalized growth values, listed per item

| compound | normalized growth |
| --- | --- |
| CN(C/C=C/C#CC(C)(C)C)Cc1cccc2ccccc12 | 0.462 |
| CC(C)(S)[C@@H](N)C(=O)O | 1 |
| CCCNC(=O)NS(=O)(=O)c1ccc(Cl)cc1 | 0.991 |
| COc1ccc2c(c1)OCC(Cc1ccc(O)c(OC)c1)C2=O (stereo unspecified) | 0.966 |
| N[C@@H](C(=O)O)[C@@H](O)[C@H](O)[C@H](O)CO | 1.02 |
| COc1ccc(CCC(=O)c2c(O)cc(O[C@@H]3O[C@H](CO)C(O)[C@H](O)C3O[C@@H]3O[C@@H](C)[C@H](O)[C@@H](O)[C@H]3O)cc2O)cc1O (stereo partly specified) | 1.02 |
| NC(C(=O)O)C(O)C(=O)O (stereo unspecified) | 0.978 |
| NC(N)=NCCCCN=C(N)N | 0.986 |
| c1ccc2c(CC3=NCCN3)cccc2c1 | 0.972 |
| C[C@@H]1CC2C3CCC4=CC(=O)C=C[C@]4(C)[C@@]3(F)[C@@H](O)C[C@]2(C)[C@@]1(O)C(=O)CO (stereo partly specified) | 0.972 |
| COC(=O)[C@@H]1OC(=O)C2OC23[C@@]1(C)CCC1[C@@]2(C)CCC(=O)C(C)(C)C2C[C@@H](OC(C)=O)[C@]13C (stereo partly specified) | 1.01 |
| CC(=O)OCC(=O)[C@@]1(O)CCC2C3CCC4=CC(=O)C=CC4(C)C3[C@@H](O)C[C@@]21C (stereo partly specified) | 0.998 |
| O=C1CCCN1CC#CCN1CCCC1 | 1.02 |
| Clc1ccc(C(c2ccccc2Cl)C(Cl)Cl)cc1 (stereo unspecified) | 0.972 |
| Cc1nnc(NS(=O)(=O)c2ccc(N)cc2)s1 | 1 |
| COc1ccc2c(c1)OCC(Cc1ccc(OC)c(OC)c1)C2=O (stereo unspecified) | 0.983 |
| NCC[C@@H](O)C(=O)N[C@@H]1C[C@H](N)[C@@H](O[C@H]2O[C@H](CN)[C@@H](O)[C@H](O)[C@H]2O)[C@H](O)[C@H]1O[C@H]1O[C@H](CO)[C@@H](O)[C@H](N)C1O (stereo partly specified) | 1.03 |
| NC(N)=NCCN1CCCCCCC1 | 1.02 |
| C1N2CN3CN1CN(C2)C3 | 0.983 |
| CC(=O)Oc1c2c(c(CC=C(C)C)c3c1C(=O)C1=C[C@@H]4CC5C(C)(C)OC(C/C=C(\C)C(=O)O)(C4=O)[C@@]15O3)OC(C)(CCC=C(C)C)C=C2 (stereo partly specified) | 0.994 |
| COc1ccc2c(c1)OCC(Cc1ccc(OC)c(O)c1)C2=O (stereo unspecified) | 0.955 |

Taken from PubChem BioAssay AID1159580.
